Hey, just so you know, these numbers are from PubChem BioAssay (NCI).

# System: LOX IMVI melanoma
# methodNotes: NCI tumour cell line growth inhibition, 48 h
Known TGI of a selection of compounds

compound: COc1ccc(CNc2c3ccccc3nc3ccccc23)cc1F
TGI: 3.63 µM
//
compound: COC(=O)c1c(C)cc(OC)c(C/C=C(\C)CCCc2coc(C=C(C)C)c2)c1OC
TGI: > 100 µM
//
compound: OCCCc1ccc2c(c1)[C@H](CO)[C@@H](c1ccc(O)cc1)O2
TGI: > 100 µM
//
compound: CC[C@]1(O)C[C@H]2CN(CCc3c([nH]c4ccccc34)C(C(=O)OC)(c3cc4c(cc3OC)N(C)[C@H]3[C@@](O)(C(=O)OC)[C@H](OC(C)=O)[C@]5(CC)[C@@H]6C[C@@H]6CN6CC[C@]43[C@@H]65)C2)C1 (some centres undefined)
TGI: > 10.3 µM
//
compound: C=CC12CCN(CC1)C(C(O)c1ccnc3ccc(OC)cc13)C2 (centres undefined)
TGI: > 100 µM
//
compound: CCOC(=O)CC/C(=N/Nc1ccc(Cl)cc1[N+](=O)[O-])C(=O)OCC
TGI: > 100 µM
//
compound: CC[C@@H]1NC(C(=O)OC)Cc2c1[nH]c1ccccc21 (some centres undefined)
TGI: > 100 µM
//
compound: COc1nc(=O)n(C2C=CC(=O)O2)cc1F (centres undefined)
TGI: 22.9 µM
//
compound: NC(=O)c1cc(I)ccc1NC(=O)/C=C/c1ccccc1
TGI: > 100 µM

* * *

# Tested on: HS 578T breast
# methodNotes: NCI tumour cell line growth inhibition, 48 h
metricName: TGI (µM)

molecule: O=c1onc2n1-c1cc(Cl)ccc1C(=S)N1CSCC21 (stereo not given)
resultModifier: >
reported: 100

molecule: CNc1[nH]c(=S)nc2sc3c(c12)CCCC3
resultModifier: >
reported: 75

molecule: CCOC(=O)c1c2cccccc-2nc1Nc1cccc2c(C)ccnc12
resultModifier: >
reported: 10

molecule: CN(C)Cc1cc(C(=O)/C=C/c2ccc([N+](=O)[O-])cc2)cc(CN(C)C)c1O
resultModifier: =
reported: 60.3

molecule: COc1nc(=O)n(C2C=CC(=O)O2)cc1F (stereo not given)
resultModifier: =
reported: 40.8

molecule: CNCCCNc1ccnc2cc(Cl)ccc12
resultModifier: =
reported: 78

molecule: Cc1cc(C(=O)CSC(=S)SC(C)(C)C)ccc1Cl
resultModifier: =
reported: 82.3

molecule: CN(Cc1cnc2nc(N)nc(N)c2n1)c1ccc(C(=O)N[C@@H](CCS(=O)(=O)O)C(=O)O)cc1
resultModifier: >
reported: 100

molecule: CC(C)(C)c1ccc2c(c1)C#Cc1cc3c(cc1OCCCO2)C#Cc1cc(C(C)(C)C)ccc1OCCCO3
resultModifier: >
reported: 100

molecule: COc1cc2c3c(n(C)c(=O)c2cc1OC)-c1cc2c(cc1C3=O)OCO2
resultModifier: >
reported: 100

molecule: CC1(C)CCc2c(ccc(C(=O)/C=C/c3ccc(O)cc3)c2O)O1
resultModifier: =
reported: 27.2

molecule: Cc1cc(C[C@H]2O[C@@H]3OC(C)(C)O[C@@H]3[C@H]3OC(C)(C)O[C@H]32)c2ccccc2n1
resultModifier: >
reported: 100

molecule: CC1OC(O[C@H]2C3C=CO[C@@H](OC4OC(CO)C(O)C(O)C4O)C3[C@@]3(COC(=O)/C=C/c4ccccc4)O[C@@H]23)C(O)C(O)C1O (stereo not given in full)
resultModifier: >
reported: 100

molecule: Cc1ccc(/C=C2/N=C(N/N=C\C(O)C(O)C(O)C(O)CO)NC2=O)cc1 (stereo not given)
resultModifier: >
reported: 100

molecule: O=C1N(Cc2ccccc2)C2CSCC2N1Cc1ccccc1 (stereo not given)
resultModifier: =
reported: 66.5

molecule: c1ccc(C(C(=Nc2ccc(Cc3ccc(N=C(C(c4ccccc4)c4ccccc4)N4CC4)cc3)cc2)N2CC2)c2ccccc2)cc1
resultModifier: =
reported: 35.7

molecule: CCOC(=O)c1c(C)c2c(n1Cc1ccccc1)CSCC2=O
resultModifier: =
reported: 53.3

molecule: C=C(C)[C@H]1C2=CC(C(=O)OC)=C(C[C@H](C(=C)C)[C@@H](O)[C@@H](O)C3=C[C@H]1OC3=O)O2
resultModifier: >
reported: 100

molecule: Cc1c2c(c(C)n1-c1ccccc1)C(=O)N(CCN1CCN(c3cccc(C(F)(F)F)c3)CC1)C2=O
resultModifier: >
reported: 100

molecule: NNc1ncnc2nc[nH]c12
resultModifier: >
reported: 70
